- EXPERIMENT_NOTES: Primary qHTS to identify inhibitors of SARS-CoV-2 cell entry (AID 1645846); further: nearly all actives have a fitted effect of over 45% in size
- REPORTED_CONDITIONS: SARS-CoV-2 pseudovirus cell entry assay, luminescence; at 57.1 µM (top of the series) unless noted
Inconclusive results are not listed.
Record form. Attribute: activity change, negative = inhibition. Fill in for each entry.
Express it in %; write the number only.

In plain terms, "CN(CCCCCCN(C)C(=O)Oc1ccc[n+](C)c1)C(=O)Oc1ccc[n+](C)c1" has a documented activity change, negative = inhibition of -28.5

In plain terms, "CC(=O)N[C@H]1[C@H](O[C@@H]2c3ccc(c(Cl)c3)Oc3cc4cc(c3O[C@@H]3O[C@H](CO)[C@@H](O)[C@H](O)[C@H]3NC(=O)CCCCCCCC(C)C)Oc3ccc(cc3Cl)C[C@H]3NC(=O)[C@H](N)c5ccc(O)c(c5)Oc5cc(O)cc(c5)[C@H](NC3=O)C(=O)N[C@H]4C(=O)N[C@H]3C(=O)N[C@@H]2C(=O)N[C@@H](C(=O)O)c2cc(O)cc(O[C@H]4O[C@H](CO)[C@@H](O)[C@H](O)[C@@H]4O)c2-c2cc3ccc2O)O[C@H](CO)[C@@H](O)[C@@H]1O" has a documented activity change, negative = inhibition of -12.4

In plain terms, COc1nc(N)nc2c1ncn2C1OC(CO)C(O)C1O (stereo not given) has a documented activity change, negative = inhibition of 1.29

In plain terms, "Nc1ccc(/C=C/C(=O)NCc2cc3cc(-c4ccc(C(=O)N5CCC(F)(F)CC5)cc4)cc(-c4ccc(F)cc4)c3o2)cn1" has a documented activity change, negative = inhibition of -96.3

In plain terms, "O=c1cc(N2CCOCC2)oc2c(-c3ccc4c(c3)OCCO4)csc12" has a documented activity change, negative = inhibition of -5.73

In plain terms, "Cc1ccc(NC(=O)[C@H]2CCCN(C(=O)c3c(C)cccc3F)[C@H]2c2ccc(NC3CCCC3)cc2)cc1C(F)(F)F" has a documented activity change, negative = inhibition of -27.6

In plain terms, "Cc1cc(N2CCN([C@@H]3CN[C@H](C(=O)N4CCSC4)C3)CC2)n(-c2ccccc2)n1" has a documented activity change, negative = inhibition of -20

In plain terms, "O=C(CCCCCCNC(=O)c1cnc(N(c2ccccc2)c2ccccc2Cl)nc1)NO" has a documented activity change, negative = inhibition of 2.82

In plain terms, "NCCC[C@H](NC(=O)[C@@H]1CCCN1C(=O)[C@@H]1CSSC[C@H](N)C(=O)N[C@@H](Cc2ccc(O)cc2)C(=O)N[C@@H](Cc2ccccc2)C(=O)N[C@@H](CCC(N)=O)C(=O)N[C@@H](CC(N)=O)C(=O)N1)C(=O)NCC(N)=O" has a documented activity change, negative = inhibition of -24.3

In plain terms, CNCC(O)c1ccc(OC(=O)C(C)(C)C)c(OC(=O)C(C)(C)C)c1 (stereo not given) has a documented activity change, negative = inhibition of -25.4

In plain terms, "Cc1ccc(S(=O)(=O)Cc2nc(-c3ccc(C(=O)NCc4cccnc4)cc3)oc2C)cc1" has a documented activity change, negative = inhibition of -96.2

In plain terms, "Cc1c(-c2c(-c3ccc(F)o3)sc3ncnc(O[C@@H](Cc4ccccc4OCc4ccnn4CC(F)(F)F)C(=O)O)c23)ccc(OCCN2CCN(C)CC2)c1Cl" has a documented activity change, negative = inhibition of -7.93

In plain terms, "CCCCC[C@@H](O)CC[C@H]1[C@@H]2Cc3cccc(OCC(=O)O)c3C[C@@H]2C[C@@H]1O" has a documented activity change, negative = inhibition of -4.98

In plain terms, "CCCC[C@H](C)C[C@H](O)/C=C/[C@H]1[C@H](O)CC(=O)[C@@H]1CCCC/C=C/C(=O)O" has a documented activity change, negative = inhibition of -18.9

In plain terms, CCS(=O)(=O)N1CCC(C(C)n2c(C)c(C(=O)NCc3c(OC)cc(C)[nH]c3=O)c3ccccc32)CC1 (stereo not given) has a documented activity change, negative = inhibition of -8.61

In plain terms, "COc1cc2cc(c1Cl)N(C)C(=O)C[C@H](OC(=O)C(C)C)[C@]1(C)O[C@@H]1[C@H](C)[C@@H]1C[C@@](O)(NC(=O)O1)[C@H](OC)/C=C/C=C(\C)C2" has a documented activity change, negative = inhibition of -80.9

In plain terms, "C[C@@H]1N=C(N)NC(N(C)C)=N1" has a documented activity change, negative = inhibition of -14.7

In plain terms, "OC[C@H]1O[C@@H](S[C@@H]2O[C@H](CO)[C@H](O)[C@H](n3cc(-c4cccc(F)c4)nn3)[C@H]2O)[C@H](O)[C@@H](n2cc(-c3cccc(F)c3)nn2)[C@H]1O" has a documented activity change, negative = inhibition of 2.64

In plain terms, "C#Cc1cccc(Nc2ncnc3cc4c(cc23)OCCOCCOCCO4)c1" has a documented activity change, negative = inhibition of -13.8

In plain terms, "O=C1NC(=O)[C@@H](c2cn3c4c(cccc24)CCC3)[C@@H]1c1c[nH]c2ccccc12" has a documented activity change, negative = inhibition of -73.3

In plain terms, OC(CN1CCCCC1)c1cc(-c2ccccc2)on1 (stereo not given) has a documented activity change, negative = inhibition of -15.3

In plain terms, "Cc1nn(C)c(COc2ccc(N3CCN(S(=O)(=O)N(C)C)CC3)cc2)c1-c1cccc2c(CCCOc3cccc4ccccc34)c(C(=O)O)n(CCN3CCOCC3)c12" has a documented activity change, negative = inhibition of -18.4

In plain terms, "Cc1nc(NS(=O)(=O)c2ccc(N)cc2)nc(C)c1Br" has a documented activity change, negative = inhibition of -21.5

In plain terms, "CO[C@H]1/C=C\O[C@@]2(C)Oc3c(C)c(O)c4c(O)c(c5c(nc6cc(C)ccn65)c4c3C2=O)NC(=O)/C(C)=C\C=C/[C@H](C)[C@H](O)[C@@H](C)[C@@H](O)[C@@H](C)[C@H](OC(C)=O)[C@@H]1C" has a documented activity change, negative = inhibition of -25.8

In plain terms, "CN1C(=O)N[C@@H](Cc2c[nH]c3c(Cl)cccc23)C1=O" has a documented activity change, negative = inhibition of 1.88

In plain terms, CCC(=O)OCC(=O)C1(OC(=O)CC)C(C)CC2C3CCC4=CC(=O)C=CC4(C)C3(F)C(O)CC21C (stereo not given) has a documented activity change, negative = inhibition of -47

In plain terms, "COc1ccccc1C(=O)Nc1cc2c(cc1N1CCCCC1)n(C)c(=O)n2C" has a documented activity change, negative = inhibition of -21.1

In plain terms, "CCOC(=O)CCNc1cc(N2CCc3ccccc3CC2)nc(-c2ccccn2)n1" has a documented activity change, negative = inhibition of -97.3

###

- TARGET_UNDER_TEST: Cytochrome P450 2C9 (Homo sapiens) (UniProt P11712)
- Sequence (P11712 whole entry, looked up): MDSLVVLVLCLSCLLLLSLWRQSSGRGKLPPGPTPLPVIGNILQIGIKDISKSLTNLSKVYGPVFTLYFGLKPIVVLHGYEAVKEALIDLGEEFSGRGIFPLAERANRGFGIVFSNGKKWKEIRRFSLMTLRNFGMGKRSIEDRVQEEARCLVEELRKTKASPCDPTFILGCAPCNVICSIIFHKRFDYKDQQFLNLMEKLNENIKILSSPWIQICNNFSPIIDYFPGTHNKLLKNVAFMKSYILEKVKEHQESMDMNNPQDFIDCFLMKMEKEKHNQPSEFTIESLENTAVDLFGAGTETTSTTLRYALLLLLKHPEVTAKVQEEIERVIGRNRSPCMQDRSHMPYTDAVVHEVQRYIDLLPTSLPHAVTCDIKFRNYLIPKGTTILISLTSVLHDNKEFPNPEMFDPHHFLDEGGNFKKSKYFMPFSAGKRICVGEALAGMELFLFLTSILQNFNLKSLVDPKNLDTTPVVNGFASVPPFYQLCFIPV
- EXPERIMENT_NOTES: qHTS Assay for Inhibitors and Substrates of Cytochrome P450 2C9 (AID 883); further: nearly all actives have a fitted effect of over 60% in size; further: potency means the concentration at half of the fitted maximal effect
- REPORTED_CONDITIONS: recombinant CYP2C9, luciferin-H luminescence, 60 min; series mostly up to 57.1 µM
Results filed as inconclusive are left out. Activity calls are given as the source filed them. Calls follow the shape of the dose curve; as a rule, active = well fitted inhibition curve with a large enough effect; inconclusive = small, poorly fitted or top-dose-only effect; inactive = no such curve, though single readings can be large or run the other way.
ASSAY_READOUT: Potency

Example cases with answers are listed next.
>  <GIVEN_SMILES>
C[N+]1=Cc2cc3c(cc2CC1)OCO3

>  <REPORTED>
inactive

$$$$
>  <GIVEN_SMILES>
CC(C)c1ccc(C(c2c(O)c3ccccc3oc2=O)c2c(O)c3ccccc3oc2=O)cc1

>  <REPORTED>
3.16 µM (active)

$$$$
>  <GIVEN_SMILES>
COc1cc(C=C(C#N)C#N)cc(O)c1O

>  <REPORTED>
2.51 µM (active)

$$$$
>  <GIVEN_SMILES>
N#Cc1cccc(NC(=O)N2CC[C@@]3(CCCN(C(=O)Oc4ccccc4)C3)C2)c1

>  <REPORTED>
inactive

$$$$
>  <GIVEN_SMILES>
CC(C)c1c(CN(C)[C@@H](C)Cc2ccccc2)n(C)n(-c2ccccc2)c1=O

>  <REPORTED>
7.94 µM (active)

$$$$

In plain terms, "C[C@@]12CC[C@H]3[C@@H](CC[C@@H]4C[C@H]5S[C@H]5C[C@]43C)[C@H]1CC[C@H]2O" has a documented Potency of 0.005 µM (active)

###

- EXPERIMENT_NOTES: Cytotoxicity counterscreen for inhibitors of SARS-CoV-2 cell entry (AID 1645845); further: nearly all actives have a fitted effect of over 50% in size
- REPORTED_CONDITIONS: cell viability (SARS-CoV-2 entry assay cells); series mostly up to 57.1 µM
Inconclusive results are not listed. Activity calls are given as the source filed them. Calls follow the shape of the full dose curve.
Tick one outcome: t = active, f = inactive

stdin: Could you kindly confirm the outcome this assay logged for "C=Cc1c(C)c2cc3nc(c(CC(=O)N[C@@H](CC(=O)O)C(=O)O)c4nc(cc5[nH]c(cc1[nH]2)c(C)c5CC)C(C)=C4C(=O)O)[C@@H](CCC(=O)O)[C@@H]3C" ?
stdout: f

stdin: Could you kindly confirm the outcome this assay logged for C=CC[N@@+]12CC[C@]34c5ccccc5N5/C=C6\C7N(/C=C(\C53)[C@@H](C[C@@H]41)/C(=C/CO)C2)c1ccccc1[C@@]71CC[N@@+]2(CC=C)C/C(=C\CO)[C@@H]6C[C@@H]12 (stereo partly drawn) ?
stdout: f

stdin: Could you kindly confirm the outcome this assay logged for CC1=CCC(C(C)(C)O)CC1 (stereo not drawn) ?
stdout: f

stdin: Could you kindly confirm the outcome this assay logged for "C[C@@H]1C[C@H]2[C@@H]3C[C@H](F)C4=CC(=O)C=C[C@]4(C)[C@@]3(Cl)[C@@H](O)C[C@]2(C)[C@H]1C(=O)COC(=O)C(C)(C)C" ?
stdout: f

stdin: Could you kindly confirm the outcome this assay logged for Cn1nnnc1SCC1=C(C(=O)O)N2C(=O)[C@H](NC(=O)C(O)c3ccccc3)C2SC1 (stereo partly drawn) ?
stdout: f

stdin: Could you kindly confirm the outcome this assay logged for "C#Cc1cccc(Nc2ncnc3cc4c(cc23)OCCOCCOCCO4)c1" ?
stdout: f

stdin: Could you kindly confirm the outcome this assay logged for "CC(C)OC(=O)Nc1ccc2nc(-c3cscn3)[nH]c2c1" ?
stdout: t

stdin: Could you kindly confirm the outcome this assay logged for CCc1ccc2nc(Nc3cc(Cc4ccccc4)nc(NC4CCC(O)CC4)n3)sc2c1 (stereo not drawn) ?
stdout: f
